test: Oral bioavailability in Sprague-Dawley rat at 10 mg/kg; format: ADME, organism-based; conditions: in vivo
ATTRIBUTE MEASURED: bioavailability (%)

> print(dat)
                                 cpd.smiles  attribute.measured  endpoint.result
1  COc1cc(C)c(S(=O)(=O)N(C)CCOCC(=O)N2CCN(CC3CCN(C)CC3)CC2)c(C)c1     bioavailability               16

A: CCN1CCC(N2CCN(C(=O)COCCN(C)S(=O)(=O)c3c(C)cc(OC)cc3C)CC2)CC1
B: COc1cc(C)c(S(=O)(=O)N(C)CCOCC(=O)N(C)Cc2ccc(C3=NCCN3)cc2)c(C)c1
Query: // compare measured bioavailability between A and B ; output the lower one Answer = label.
Reply: B
